test: pH of the formulation; assay type: physicochemical; conditions: Table 20; single ingredient in water at its Ib949 wt %
Where a name gives a salt, the structure may show the parent alone.
METRIC NAME: pH-water and ingredients

>>> recorded_result("CCCCCCCCCCCCOS(=O)(=O)[O-].[Na+] [Na Lauryl Sulfate]")
7.97
>>> recorded_result("COC(=O)c1ccc(O)cc1")
5.72
>>> recorded_result("CCCOC(=O)c1ccc(O)cc1")
6.13
>>> recorded_result("CCO")
7.31

Dear colleague, could you send me pH-water and ingredients for each of the items below? Thanks.
1. CCOC(=O)CC(O)(CC(=O)OCC)C(=O)OCC [Triethyl Citrate]
2. CCOCCOCCO [Transcutol]
3. CC(O)C(=O)O (centres unmarked)
4. CC(O)CO (centres unmarked)

output:
1. 3.72
2. 4.32
3. 2.4
4. 6.97
